- System: T-47D breast
- test: NCI-60 one-dose screen, 48 h
- condition.info: 10 µM unless noted
This is part of a sample that, as a whole, favours compounds with a hit. Of some 83,000 tested, about 20% had one in any assay. Active and inactive are the calls of the source. The calls were made as follows: active = growth percent below 10; inactive = the rest.
The reply should be one of these categories: class 1 (active), class 0 (inactive)

Observe how each entry below is paired with its result.
[
  {
    "molecule": "C=C1CC2(OC1=O)C(=O)N(CCCCCCCN1C(=O)C3(CC(=C)C(=O)O3)c3ccccc31)c1ccccc12 (configuration not stated)",
    "target.system": "T-47D breast",
    "assigned.category": "class 0"
  },
  {
    "molecule": "c1ccc2sc(SCCCn3ccnc3)nc2c1",
    "target.system": "T-47D breast",
    "assigned.category": "class 0"
  },
  {
    "molecule": "Cc1ccccc1CCO",
    "target.system": "T-47D breast",
    "assigned.category": "class 0"
  },
  {
    "molecule": "C[C@@H]1CC[C@@H]2[C@@H]1[C@H](OC(=O)/C=C/c1ccccc1)[C@]1(C3CCCCC3)C[C@@H](OC(=O)CO)[C@@]2(C)O1",
    "target.system": "T-47D breast",
    "assigned.category": "class 0"
  },
  {
    "molecule": "O=C(O)c1cn(C2CC2)c2cc(N3CCN(Cc4nc5c(cnn5-c5ccc([N+](=O)[O-])cc5)c(=O)[nH]4)CC3)c(F)cc2c1=O",
    "target.system": "T-47D breast",
    "assigned.category": "class 0"
  },
  {
    "molecule": "CN(C)c1ccc(/C=C\\C2=[N+](C)c3ccccc3C2(C)C)cc1",
    "target.system": "T-47D breast",
    "assigned.category": "class 1"
  },
  {
    "molecule": "O=C1CC(c2nc3ccccc3[nH]2)CN1C1CCCCC1 (configuration not stated)",
    "target.system": "T-47D breast",
    "assigned.category": "class 0"
  },
  {
    "molecule": "Cn1cc(-c2nc(-c3c[nH]c4ccccc34)cs2)c2cccnc21",
    "target.system": "T-47D breast",
    "assigned.category": "class 1"
  },
  {
    "molecule": "CCN(CC)CCCC(C)Nc1ccnc2c(OC)cccc12 (configuration not stated)",
    "target.system": "T-47D breast",
    "assigned.category": "class 0"
  },
  {
    "molecule": "CN(CC(=O)N(Cc1ccc(C2CCCCC2)cc1)c1ccc(C(=O)NO)cc1)S(=O)(=O)c1c(F)c(F)c(F)c(F)c1F",
    "target.system": "T-47D breast",
    "assigned.category": "class 0"
  }
]

# evaluate next
(Q) Identify the outcome logged in this assay for the molecule shown: COC(=O)[C@@H]1CC[C@]2(C)[C@H](CC[C@@H]3O[C@@]32C)[C@@]1(C)CC(=O)c1ccoc1
(A) class 0

====

- Tested on: IGROV1 ovarian
- test: NCI-60 one-dose screen, 48 h (100 = growth as untreated, 0 = no growth, -100 = all killed)
- condition.info: 10 µM unless noted
The panel holds about 83,000 compounds, 20% with a hit somewhere; the sample as a whole holds those more often.
For each of the compounds below, state its growth.
Give bare numbers, in %.

Worked set:
[
  {
    "compound": "NC(=S)N/N=C/c1cc(-c2cccc(N)c2)ccn1",
    "reported.value": 16
  },
  {
    "compound": "CNCc1cccc2c1OCCOCCOCCN(C)S(=O)(=O)c1ccc(cc1)-c1cnc(N)c(n1)C(=O)N2",
    "reported.value": 42.5
  },
  {
    "compound": "C=C1CC2(OC1=O)C(=O)Nc1ccccc12 (centres undefined)",
    "reported.value": 63
  }
]

// below: growth requested for another compound
(Q) Look up growth of COc1cc(/C=N/N(C)C)ccc1O and report it.
(A) 104
